assay readout: logP

I: CN1CC(=O)N(c2ccccc2)C1=O
II: CC(C)CC1NC(=O)NC1=O (stereo not given)
Sorting by logP in descending order, would I or II appear first? State the label of the item chosen.
II

A: O=C1CNC(=O)N1
B: CCC1(c2ccccc2)NC(=O)N(C)C1=O (stereo not given)
C: O=C1NC(=O)C(Cc2ccccc2)(Cc2ccccc2)N1
Sort by logP, descending. Response field: labels, in requested order.
C, B, A

* * *

assay readout: logP

molecule: CCN1C(=O)NC(Cc2ccccc2)C1=O (configuration not stated)
logP: 1.61
//
molecule: O=C1CNC(=O)N1Cc1ccccc1
logP: 0.82
//
molecule: CN1C(=O)NC(c2ccccc2)(c2ccccc2)C1=O
logP: 2.28
//
molecule: O=C1NC(Cc2ccccc2)C(=O)N1Cc1ccccc1 (configuration not stated)
logP: 2.84

P: CC(C)C1NC(=O)NC1=O (configuration not stated)
Q: O=C1NC(Cc2ccccc2)C(=O)N1c1ccccc1 (configuration not stated)
R: CC1NC(=O)NC1=O (configuration not stated)
Please order the records by their reported logP, lowest number first. Response field: labels, in requested order.
R, P, Q
(R: -0.95, P: -0.36, Q: 2.27)

Taken from the SangsterLogP compilation.
